test system: KM12; assay: NCI tumour cell line growth inhibition, 48 h
Activity calls are given as the source filed them. No stated cut-off is given here; in the data, active = GI50 up to about 1.1 µM and inactive = higher.
property.name: GI50

In [3]: df
Out[3]:
                                   compound  assay_target  property_name           meas_value
0         COc1ccc(S(=O)(=O)N/N=C/C(=O)O)cc1          KM12           GI50    557 µM (inactive)
1    CCCCCCCCCCCCCCCC[N+](C)(C)Cc1ccc(F)cc1          KM12           GI50   1.26 µM (inactive)
2  C/C=C/CC(C(=O)OCC)(N(C)C(=O)OC(C)(C)C)S(=O)(=O)c1ccc(C)cc1 (stereo unspecified)          KM12           GI50   48.2 µM (inactive)
3       CCCOP(=O)(OCCC)OC(C(F)(F)F)C(F)(F)F          KM12           GI50  > 100 µM (inactive)
4  CC[C@@H](/C=C\CCC1(C[C@H](O)CCC=C(C)C)OCCO1)O[Si](C(C)C)(C(C)C)C(C)C          KM12           GI50   37.1 µM (inactive)
5  O=c1[nH]n(Cc2ccccn2)c2ccc([N+](=O)[O-])cc12          KM12           GI50  > 100 µM (inactive)

Reference for the values: ChEMBL document CHEMBL1201862
